Target: Phosphatidylinositol 3-kinase catalytic subunit type 3 (Homo sapiens)
Sequence (Q8NEB9 whole entry): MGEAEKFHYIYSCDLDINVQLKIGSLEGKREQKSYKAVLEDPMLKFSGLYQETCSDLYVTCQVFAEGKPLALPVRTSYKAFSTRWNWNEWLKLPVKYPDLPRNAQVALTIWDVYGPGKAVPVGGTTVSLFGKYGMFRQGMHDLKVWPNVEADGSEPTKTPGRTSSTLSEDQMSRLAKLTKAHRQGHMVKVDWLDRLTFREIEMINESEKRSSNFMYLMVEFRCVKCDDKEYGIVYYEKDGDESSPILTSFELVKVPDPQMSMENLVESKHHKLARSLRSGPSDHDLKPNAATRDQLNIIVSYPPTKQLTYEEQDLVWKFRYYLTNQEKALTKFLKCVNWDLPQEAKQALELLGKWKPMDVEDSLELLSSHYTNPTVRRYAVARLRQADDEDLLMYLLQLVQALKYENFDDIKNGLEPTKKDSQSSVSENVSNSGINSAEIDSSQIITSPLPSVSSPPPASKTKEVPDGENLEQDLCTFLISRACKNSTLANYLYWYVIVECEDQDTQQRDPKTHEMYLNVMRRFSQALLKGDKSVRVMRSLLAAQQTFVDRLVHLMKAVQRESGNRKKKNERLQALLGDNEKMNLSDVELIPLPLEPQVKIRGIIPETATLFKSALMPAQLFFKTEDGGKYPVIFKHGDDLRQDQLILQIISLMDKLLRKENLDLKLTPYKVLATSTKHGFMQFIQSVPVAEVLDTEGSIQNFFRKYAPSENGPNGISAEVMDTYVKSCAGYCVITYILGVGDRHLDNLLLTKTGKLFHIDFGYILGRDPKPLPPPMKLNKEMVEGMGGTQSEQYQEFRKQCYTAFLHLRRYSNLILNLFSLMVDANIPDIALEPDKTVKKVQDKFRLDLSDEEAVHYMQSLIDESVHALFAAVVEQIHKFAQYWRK
Assay: Inhibition of VPS34 (unknown origin) by ADP hunter plus assay
parameter.measured: IC50 (nM)

a. O=S(=O)(c1ccc(-c2ccnc3[nH]ccc23)cc1)C1CCCC1
b. O=C1Nc2ccc(-c3cccnc3)cc2C1=Cc1cc(Br)c(O)c(Br)c1
c. O=c1cc(N2CCOCC2)nc2n(Cc3cccc(Cl)c3Cl)c(C3CC3)nn12
Task: Arrange the 3 compounds from largest to smallest IC50. List the labels, following the order given in the request.
Result: a, b, c
(a: 1510 nM, b: 151 nM, c: 9.12 nM)

All figures here come from ChEMBL document CHEMBL5370541.
